Experiment: Inhibition of [3H]25-6981 binding to N-methyl-D-aspartate glutamate receptor 2B of rat brain
assayMetric: Ki (nM)
Give the value, in units of nM, as a plain number.

Reference set, count: 3
| smilesData | scaleUnit | Ki |
| --- | --- | --- |
| Clc1ccc2c(c1)CN(c1ccncc1)CC2 | nM | 37 |
| Clc1cccc2c1CCN(c1ccncc1)C2 | nM | 8 |
| Clc1ccc2c(c1)CCN(c1ccncc1)C2 | nM | 230 |

Alright, here's another compound for you.
Please report the measured Ki for OCCNc1ccnc(N2CCc3ccccc3C2)c1
2

----------
Biological target: Muscarinic acetylcholine receptor M1 (Rattus norvegicus, UniProt P08482)
Sequence (P08482 whole entry): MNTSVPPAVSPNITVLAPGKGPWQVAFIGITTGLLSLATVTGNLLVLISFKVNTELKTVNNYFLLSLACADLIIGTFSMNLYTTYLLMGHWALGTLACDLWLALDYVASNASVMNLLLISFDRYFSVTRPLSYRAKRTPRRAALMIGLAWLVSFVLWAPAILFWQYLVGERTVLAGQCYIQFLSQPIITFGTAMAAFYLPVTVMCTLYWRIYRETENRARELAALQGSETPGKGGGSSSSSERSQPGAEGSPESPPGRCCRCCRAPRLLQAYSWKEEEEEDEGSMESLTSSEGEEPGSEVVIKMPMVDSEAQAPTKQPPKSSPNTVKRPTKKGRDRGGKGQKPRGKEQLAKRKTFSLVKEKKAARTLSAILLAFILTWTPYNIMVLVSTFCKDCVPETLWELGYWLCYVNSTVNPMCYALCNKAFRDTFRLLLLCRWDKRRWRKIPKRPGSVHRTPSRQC
Experiment: Binding affinity towards Muscarinic acetylcholine receptor M1 in […] using [3H]pirenzepine as radioligand
pKi: −log10 of the molar value.
Tag: criterion met if measured pKi is not below 5, criterion not met if it is.

Field: example entries. Status: answers known.
| smilesData | qualitativeLabel |
| --- | --- |
| Cc1cc(N2CCc3ccccc3C2)cc(NC(=O)CO)n1 | criterion not met |
| Nc1cc(N2CCc3ccccc3C2)ccn1 | criterion met |

Tell me whether pKi is at least 5 here: Cc1cc(N2CCc3ccccc3C2)cc(N)n1
criterion met

Please check the record OCCNc1cc(N2CCc3ccccc3C2)c2ccccc2n1 and state if its pKi is at or above 5.
criterion met

Exam item: decide whether the reported pKi for Cc1cc(N2CCc3ccccc3C2)cc(NCCO)n1 is at least 5.
criterion met
